Assayed system: ERα (Homo sapiens, UniProt P03372)
Construct: host or cells: MCF7
Sequence (P03372 1-595): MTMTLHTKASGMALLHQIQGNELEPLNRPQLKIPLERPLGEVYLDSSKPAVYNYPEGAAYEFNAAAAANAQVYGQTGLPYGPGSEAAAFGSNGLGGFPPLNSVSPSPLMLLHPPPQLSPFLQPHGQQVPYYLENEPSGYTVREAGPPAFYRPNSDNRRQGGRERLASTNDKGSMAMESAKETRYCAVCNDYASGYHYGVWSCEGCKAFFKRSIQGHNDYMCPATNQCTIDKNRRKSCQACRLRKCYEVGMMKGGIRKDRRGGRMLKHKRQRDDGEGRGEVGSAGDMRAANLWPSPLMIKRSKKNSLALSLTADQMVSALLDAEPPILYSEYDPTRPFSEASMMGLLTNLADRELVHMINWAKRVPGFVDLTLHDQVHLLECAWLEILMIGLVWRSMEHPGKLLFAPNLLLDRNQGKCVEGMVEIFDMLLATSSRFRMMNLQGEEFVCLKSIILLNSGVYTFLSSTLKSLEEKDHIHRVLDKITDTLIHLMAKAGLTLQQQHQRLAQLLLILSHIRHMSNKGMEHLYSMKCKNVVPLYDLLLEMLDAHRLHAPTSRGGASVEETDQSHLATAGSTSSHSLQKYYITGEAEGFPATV
Test protocol: Estrogen receptor degradation activity: breast cancer cell ERα in cell western assay (MCF7 cells)
Format: cell-based
Study conditions: 0.3 μM, 4 hours, relative to fulvestrant 0.1 μM positive control
So basically: % Degradation At 0.3 μM at 80% or higher? That is T. Lower than 80%? That is F.

Worked examples follow.
> print(dat)
                                   compound  assigned.category
1  O=C(O)c1ccc2c(c1)CCCC(c1ccccc1Cl)=C2c1ccc(CC2CN(CCCF)C2)cn1 [Example 252]                  F
2  Cc1ccc(C2=C(c3ccc(CC4CN(CCCF)C4)cc3)c3cc(F)c(C(=O)O)c(F)c3CCC2)c(Cl)c1 [Example 217]                  T

Q: Check this compound for % Degradation At 0.3 μM at or above 80%: O=C(O)c1ccc2c(c1)CCCC(c1ccc(Cl)cc1Cl)=C2c1ccc(C(=O)C2CN(CCCF)C2)cc1 [Example 39]
A: T

Q: Now this one: COc1nc(C(F)(F)F)ccc1C1=C(c2ccc(CC3CN(CCCF)C3)cc2)c2ccc(C(=O)O)cc2CCC1 [Example 268]
A: T

Q: Now this one: Cl.O=C(O)c1ccc2c(c1)CCCC(c1ccc(Cl)c(Cl)c1)=C2c1ccc(CC2CN(CCCF)C2)cc1 [Example 207]
A: T

Q: Now this one: CCC(CC)CC1=C(c2ccc(CC3CN(CCCF)C3)cc2)c2ccc(C(=O)O)cc2CCC1 [Example 231]
A: T

====

Assayed system: ERα (Homo sapiens)
Construct: host or cells: MCF7
Test protocol: Estrogen receptor degradation activity: breast cancer cell ERα in cell western assay (MCF7 cells)
Assay type: cell-based
Study conditions: 0.3 μM, 4 hours, relative to fulvestrant 0.1 μM positive control
Readout: % Degradation At 0.3 μM (%)
Give the value, in units of %, as a plain number.

> print(dat)
                                   molecule  measurement.units  value.measured
1  O=C(O)c1ccc2c(c1)CCCC(c1cc(CC(F)(F)F)ccc1F)=C2c1ccc(CC2CN(CCCF)C2)cc1 [Example 295]                  %              86
2  O=C(O)c1ccc2c(c1)CCCC(C1CC3(C1)CC(F)(F)C3)=C2c1ccc(CC2CN(CCCF)C2)cc1 [Example 51]                  %              89
3  NC(c1ccc(C2=C(c3ccc(Cl)cc3Cl)CCCc3cc(C(=O)O)ccc32)cc1)C1CN(CCCF)C1 (single isomer, unassigned; isomer 1) [Example 243]                  %              78

Q: % Degradation At 0.3 μM lookup needed for O=C(O)c1ccc2c(c1)CCCC(c1nc(Cl)ccc1C(F)(F)F)=C2c1ccc(CC2CN(CCCF)C2)cc1 [Example 300] , thanks.
A: 88

====

Assayed system: ERα (Homo sapiens, UniProt P03372)
Construct: host or cells: MCF7
Test protocol: Estrogen receptor degradation activity: breast cancer cell ERα in cell western assay (MCF7 cells)
Assay type: cell-based
Study conditions: 0.3 μM, 4 hours, relative to fulvestrant 0.1 μM positive control
So basically: % Degradation At 0.3 μM at 80% or higher? That is Y. Lower than 80%? That is N.

> print(dat)
                                   compound  assigned.category
1  O=C(O)c1ccc2c(c1)CCCC(c1cccc(CCO)c1)=C2c1ccc(CC2CN(CCCF)C2)cc1                  N

Q: Check this compound for % Degradation At 0.3 μM at or above 80%: "COc1ccc(C2=C(c3ccc(CC4CN(CCCF)C4)cc3)c3ccc(C(=O)O)cc3CCC2)c(Cl)c1"
A: Y

Q: Now this one: "O=C(O)c1ccc2c(c1)CCCC([C@@H]1C[C@H]1C1CCC(F)(F)CC1)=C2c1ccc(CC2CN(CCCF)C2)cc1"
A: N

Q: Now this one: O=C(O)c1ccc2c(c1)CCCC(c1ccc(Cl)cc1Cl)=C2c1ccc(C(O)C2CN(CCCF)C2)cc1 (single isomer, unassigned) [Example 42]
A: Y

Q: Now this one: "O=C(O)c1ccc2c(c1)CCCC(c1ccc(Cl)cc1C(F)(F)F)=C2c1ccc(CC2CN(CCCF)C2)cc1"
A: Y

====

Assayed system: ERα (Homo sapiens, UniProt P03372)
Construct: host or cells: MCF7
Sequence (P03372 1-595): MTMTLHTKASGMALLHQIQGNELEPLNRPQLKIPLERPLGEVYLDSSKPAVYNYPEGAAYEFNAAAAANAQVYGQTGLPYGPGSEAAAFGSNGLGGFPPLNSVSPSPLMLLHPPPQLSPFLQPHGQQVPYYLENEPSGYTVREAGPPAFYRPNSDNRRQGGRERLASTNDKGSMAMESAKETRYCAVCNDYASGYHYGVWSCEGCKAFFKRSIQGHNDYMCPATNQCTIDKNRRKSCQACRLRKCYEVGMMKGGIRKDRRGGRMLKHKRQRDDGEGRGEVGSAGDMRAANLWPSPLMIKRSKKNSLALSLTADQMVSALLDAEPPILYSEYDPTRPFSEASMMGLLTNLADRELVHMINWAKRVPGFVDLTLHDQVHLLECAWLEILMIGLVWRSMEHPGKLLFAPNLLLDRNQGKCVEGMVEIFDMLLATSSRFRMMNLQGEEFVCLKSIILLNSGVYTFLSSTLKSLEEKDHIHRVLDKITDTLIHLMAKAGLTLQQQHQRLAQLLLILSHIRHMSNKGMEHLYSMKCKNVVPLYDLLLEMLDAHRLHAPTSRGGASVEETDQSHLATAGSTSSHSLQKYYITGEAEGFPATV
Test protocol: Estrogen receptor degradation activity: breast cancer cell ERα in cell western assay (MCF7 cells)
Type: cell-based
Study conditions: 4 hours post compound addition, concentration which degrades 50% of the estrogen receptor, read-out: Degradation IC50
Readout: log10(DC50) (log10 of the value in nM)
Heads up, the numbers here are log10 of DC50 in nM units.

Molecule	log10(DC50)
O=C(O)c1ccc2c(c1)CCCC(c1cccc(Cl)c1C(F)(F)F)=C2c1ccc(CC2CN(CCC(F)F)C2)cc1	-0.52
Cc1c(C2=C(c3ccc(CC4CN(CCCF)C4)cc3)c3ccc(C(=O)O)cc3CCC2C)cccc1C(F)(F)F (racemic)	-0.40
CC(O)(c1ccc(C2=C(c3ccc(Cl)cc3Cl)CCCc3cc(C(=O)O)ccc32)cc1)C1CN(CCCF)C1.Cl (single isomer, unassigned; isomer 2) [Example 236]	-0.40

Q: log10(DC50) lookup needed for "O=C(O)c1ccc2c(c1)CCCC(c1ccc(Cl)cc1Cl)=C2c1ccc(C(=O)C2CN(CCCF)C2)cc1" , thanks.
A: 0.08

Q: Now this one: "O=C(O)c1ccc2c(c1)CCCC(c1ccc(F)c(CC(F)(F)F)c1)=C2c1ccc(CC2CN(CCCF)C2)cc1"
A: -0.10

Q: Now this one: "Cc1cc(F)ccc1C1=C(c2ccc(CC3CN(CCCF)C3)cc2)c2ccc(C(=O)O)cc2CCC1"
A: -0.70

Q: Now this one: "O=C(O)c1ccc2c(c1)CCCC(c1ccc(Cl)cc1Cl)=C2c1ccc(C(F)(F)C2CN(CCCF)C2)cc1"
A: -0.40

Q: Now this one: O=C(O)c1ccc2c(c1)CCCC(c1ccc(Cl)cc1Cl)=C2c1ccc(C(F)C2CN(CCCF)C2)cc1 (single isomer, unassigned) [Example 43]
A: -0.40

Q: Now this one: "COc1c(C(=O)O)ccc2c1CCCC(c1ccc(F)cc1C)=C2c1ccc(CC2CN(CCCF)C2)cc1"
A: 2.26

Q: Now this one: "O=C(O)c1ccc2c(c1)CCCC(c1ccccc1C(F)(F)F)=C2c1ccc(CC2(F)CN(CCCF)C2)cc1"
A: 0.08

Q: Now this one: "O=C(O)c1ccc2c(c1)CCCC(C1CCOCC1)=C2c1ccc(CC2CN(CCCF)C2)cc1"
A: 0.85

Q: Now this one: O=C(O)c1ccc2c(c1)CCCC(c1ccc(Cl)cc1Cl)=C2c1ccc(C(F)C2CN(CCCF)C2)cc1 (single isomer, unassigned) [Example 44]
A: -0.30

Q: Now this one: CC1CCc2cc(C(=O)O)ccc2C(c2ccc(CC3CN(CCCF)C3)cc2)=C1c1ccc(Cl)cc1Cl (single isomer, unassigned) [Example 302]
A: -0.22

Q: Now this one: "O=C(O)c1ccc2c(c1)CCCC(c1cccc(Cl)c1C(F)(F)F)=C2c1ccc(CC2CN(CCC(F)(F)F)C2)cc1"
A: -0.40
